STUDY_SYSTEM: Polyunsaturated fatty acid lipoxygenase ALOX12 (Homo sapiens)
EXPERIMENT_DESCRIPTION: Primary qHTS assay for inhibitors of human arachidonate 12S-lipoxygenase (ALOX12): Round 2; further: potency means the concentration at half of the fitted maximal effect
CONDITION_DESCRIPTION: purified 12hLO, xylenol orange hydroperoxide absorbance; series mostly up to 108 µM
The campaign covered roughly 580,000 compounds. About 6,100 (1.1%) were called active. Not shown: some 15% with an inconclusive outcome. Shown is part of a subset that was picked to be rich in actives.
TEST_READOUT: Potency

The cases that follow already have their Potency on record.
C=CCN1C(=O)NC(=O)/C(=C/c2ccc(OCC(=O)Nc3ccc(C)cc3)cc2)C1=O
39.8 µM (active)
CC1CNCCN1c1ccc(Cl)cc1 (stereo unspecified)
inactive
CCC(=O)c1ccc(OCC(=O)N2CCN(CC(=O)Nc3ccc(C)cc3)CC2)cc1
inactive
C=C(C)C1(CCCC)C(=O)NC(=S)NC1=O
44.7 µM (active)
c1ccc2sc(N3CCNCC3)nc2c1
inactive
COc1ccc(/C=C\[N+](=O)[O-])c(OC)c1
inactive

What measured Potency goes with Cc1nc(-c2ccc(N(C)C)cc2)cc([C@H]2CN3CC[C@H]2C[C@@H]3CNC(=O)C2CCC2)n1 ?
inactive

What measured Potency goes with O=C(NCc1ccccc1)[C@H]1CN2CCC1C[C@@H]2Cn1cc(-c2ccc(F)cc2)nn1 (stereo partly specified) ?
inactive

What measured Potency goes with COc1ccccc1-c1cc([C@H]2CN3CC[C@H]2C[C@@H]3CNCc2cccc(C#N)c2)n(C)n1 ?
inactive

What measured Potency goes with Cc1cc(N2CCNC[C@@H]2C)ccc1N1CC[C@H](O)C1 ?
44.7 µM (active)

What measured Potency goes with C=CCN(CC=C)C(=O)Nc1ccc(OCC)cc1 ?
inactive

Origin of the recorded values: PubChem BioAssay AID1671190
